The measured values listed here are drawn from patent US12427163B2.

Subject Of Test: T1, human VTCN1 protein (Homo sapiens, UniProt Q7Z7D3)
T1 construct: His
T1 sequence (Q7Z7D3 25-282): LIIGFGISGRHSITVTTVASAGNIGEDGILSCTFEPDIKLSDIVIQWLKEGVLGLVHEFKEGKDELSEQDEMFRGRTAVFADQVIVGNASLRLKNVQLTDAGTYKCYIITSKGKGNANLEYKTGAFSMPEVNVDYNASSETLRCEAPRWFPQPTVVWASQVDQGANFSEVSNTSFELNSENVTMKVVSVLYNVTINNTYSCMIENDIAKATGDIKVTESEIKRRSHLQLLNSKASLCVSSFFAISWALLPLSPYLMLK
Protocol: Affinity to recombinant VTCN1-his by OCTET Red (Protein A biosensors)
Assay type: binding
Condition Set: Table 12
Procedure: The affinity of antibodies to recombinant VTCN1 was determined on an OCTET™ Red (Pall, ForteBio) instrument. […] Table 5 lists the affinity measured for selected antibodies.
Observable: Human K(off)
# answer = number (no unit)

Would you kindly share the measured Human K(off) for 12B5_44B1: fully human VTCN1 antibody; VH SEQ ID NO: 264, VL SEQ ID NO: 268 (antibody, V domains shown) VH: QVQLVQSGAEVKKPGSSMKVSCKASGDTFSSYAISWVRQAPGQGLEWMAGIIPVFGTAHNAQKFQGRVTITADKSTSTAYMELSSLRSEDTAVYYCTRGGPYFDYWGQGTLVTVSS VL: EIVMTQSPATLSVSPGERAALSCRASQSVSSNLAWYQQKPGQAPRLLIYGVSTRATGIPDRFNGSGSGTEFTLTISSLQSEDFGAYYCQQYKKWPFIFGPGTKLEIK ?
3.54E−04
